Recorded Kd values for a group of binders are listed next.
system: T1, Man9-V3 glycopeptide (cyclic)
T1 peptide: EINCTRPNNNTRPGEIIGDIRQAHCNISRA
assayInfo: BLI
Answer format: numeric, nM implied, no suffix.

// below: answered binders
{"columns": ["binder", "propertyName", "endpointResult"],
 "data": [
  ["DH270.4 (antibody, V domains shown) VH: EVQLVQSGAEMKNPGASVKVSCAASGYGFTDFYIHWVRLAPGHGLQWMGWMNPKTGRTNNAQDFQGRVILTRDTSIGTAYMELRRLTSDDTAVYYCVTGGWISPYYDSSYYPNFDHWGQGTLITVSS VL: QSALTQPASVSGSPGQSITISCTGTSYDVAKFDLVSWFQQHPGKAPKYMIYEVNKWPSGVSHRFSGSKSGNTASLTISGLQAEDEADYYCCSFGGSATVVCGGGTKVTVL", "Kd", 346],
  ["DH270.2 (antibody, V domains shown) VH: QVQLVQSGAEMKKPGASVRVSCKASGYTFTDYYIHWVRQAPGQGPEWMGWINPSTGRTNSPQKFQGRVIMTRDTSISTAYMDLNRLTSDDTAMYYCTTGGWIGLYSDTSGYPNFDYWGQGTLVTVSS VL: QSALTQPASVSGSPGQSITISCTGTNYDVGSYNLVSWYQQHPGKVPKYIIYEVNKRPSGVSNRFSGSKSGNTASLTISGLQAEDEADYYCCSYAGSSIIFFGGGTKLTVI", "Kd", 4770],
  ["DH270.5 (antibody, V domains shown) VH: QVQLVQSGAEVKNPGASVKVSCAPSGYTFTDFYIHWVRLAPGQGLEWLGWMNPKTGRTNQGQNFQGRVIMTRDTSIGTAYMELRSLTSDDTAVYYCVTGAWISDYYDSSYYPNFDHWGQGTLVTVSS VL: LPVLTQPASVSGSPGQSITISCTGTIYDVGKFDLVSWYQHHPGKAPKYLIYEVKKWPSGVSHRFSGSKSGNTASLTISGLQVEDEADYYCCSFGGSAAVVCGGGTKVTVL", "Kd", 281]
]}

Q: // lookup Kd for DH270.3 (antibody, V domains shown) VH: QVQLVQSGAEMKNPGASVKVSCAASGYTFTDFYIHWVRLAPGQGLEWMGWMNPKTGRTNNAQNFQGRVIMTRDTSIGTAYMELRRLTSDDTAVYYCVTGGWISPYYDSSYYPNFDHWGQGTLVTVSS VL: QSALTQPASVSGSPGQSITISCTGTSYDVGKFDLVSWYQQHPGKAPKYMIYEVNKWPSGVSHRFSGSKSGNTASLTISGLQAEDEADYYCCSFGGSATVVCGGGTKVTVL
Result: 195
